Tested on: M14 melanoma
Assay: NCI-60 one-dose screen, 48 h (100 = growth as untreated, 0 = no growth, -100 = all killed)
Conditions: 10 µM
About 83,000 compounds went through this panel and 20% of them were active in at least one assay; those are over-represented in the sample as a whole.
The threshold is inclusive: growth of exactly 90% counts as YES; values below receive NO.

compound=Nc1nc(N)c(NC(=O)CNc2ccc(C(=O)O)cc2)c(N)n1 label=YES
compound=O=C(O)c1ccc(Cl)cc1Nc1ccc(F)cc1 label=NO
compound=CN(C)c1ccc(Cc2ccc(N(C)C)cc2Cl)c(Cl)c1 label=YES
compound=O=C1N=NC2=C1c1c3ccccc3c(O)n1CC2 label=YES
compound=CCCCCCc1cc(N=Nc2ccc(S(=O)(=O)Nc3cc(C)nc(C)n3)cc2)c(O)cc1O label=YES
compound="CC1CC(=O)OC(C)C1 (stereo unspecified)" label=YES
compound=CNc1ccc(CSc2ccc(C)cc2)cc1 label=NO
compound="COc1ccc(C2CC(c3ccc(N(C)C)cc3)=NN2c2ccc(S(N)(=O)=O)cc2)cc1 (stereo unspecified)" label=NO
compound="CCC1(C(C)C)NC(=O)NC1=O (stereo unspecified)" label=YES
compound=O=c1cc(-c2ccccc2)[nH]n1-c1nc2ccccc2[nH]1 label=NO
compound=COc1cc(Nc2ccnc(NCCNc3ccnc4cc(Cl)ccc34)n2)cc(OC)c1 label=NO
compound=CN(C)c1ccc(-c2cc(-c3cccc(NS(C)(=O)=O)c3)nc(N)c2C#N)cc1 label=NO
compound=COc1cc(-c2nc(-c3nnc(-c4ccc(F)c(Cl)c4)o3)c3ccccn23)cc(OC)c1OC label=NO
compound=O=c1c2ccccc2nc(SCCN2CCCCC2)n1CCc1ccccc1 label=YES
compound=C#Cc1ccc(-n2c(/C=C/c3ccc4ccccc4c3)nc3ncccc3c2=O)cc1 label=NO
compound=O=C1/C(=C\c2ccc(Br)cc2)CN(C(=O)c2ccccc2F)C/C1=C\c1ccc(Br)cc1 label=NO

Where do these numbers come from? They come from PubChem BioAssay (NCI).
